For each of the compounds below, state its pIC50.
TEST TARGET: wild-type PRC2 enzyme (EZH2 WT) (Homo sapiens)
Sequence (Q15910 whole entry): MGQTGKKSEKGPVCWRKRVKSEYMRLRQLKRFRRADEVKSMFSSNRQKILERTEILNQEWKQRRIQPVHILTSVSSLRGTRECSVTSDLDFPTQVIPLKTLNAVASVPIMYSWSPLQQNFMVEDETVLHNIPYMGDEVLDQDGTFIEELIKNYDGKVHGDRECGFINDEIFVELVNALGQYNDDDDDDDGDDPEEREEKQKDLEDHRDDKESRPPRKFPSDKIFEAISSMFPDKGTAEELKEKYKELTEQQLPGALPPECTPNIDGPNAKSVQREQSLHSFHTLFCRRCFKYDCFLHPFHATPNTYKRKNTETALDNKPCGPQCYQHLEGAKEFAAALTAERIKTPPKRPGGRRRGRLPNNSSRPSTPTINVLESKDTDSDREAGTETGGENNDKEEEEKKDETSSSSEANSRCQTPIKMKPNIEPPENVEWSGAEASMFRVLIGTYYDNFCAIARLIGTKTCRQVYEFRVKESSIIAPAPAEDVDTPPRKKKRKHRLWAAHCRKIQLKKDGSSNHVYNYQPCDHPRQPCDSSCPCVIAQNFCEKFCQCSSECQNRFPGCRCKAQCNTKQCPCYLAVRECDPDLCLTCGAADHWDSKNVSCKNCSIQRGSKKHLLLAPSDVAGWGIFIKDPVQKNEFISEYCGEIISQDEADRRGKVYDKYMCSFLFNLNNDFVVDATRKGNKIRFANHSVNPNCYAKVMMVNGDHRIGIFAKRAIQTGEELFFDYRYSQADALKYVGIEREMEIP
Sequence (O75530 whole entry partner): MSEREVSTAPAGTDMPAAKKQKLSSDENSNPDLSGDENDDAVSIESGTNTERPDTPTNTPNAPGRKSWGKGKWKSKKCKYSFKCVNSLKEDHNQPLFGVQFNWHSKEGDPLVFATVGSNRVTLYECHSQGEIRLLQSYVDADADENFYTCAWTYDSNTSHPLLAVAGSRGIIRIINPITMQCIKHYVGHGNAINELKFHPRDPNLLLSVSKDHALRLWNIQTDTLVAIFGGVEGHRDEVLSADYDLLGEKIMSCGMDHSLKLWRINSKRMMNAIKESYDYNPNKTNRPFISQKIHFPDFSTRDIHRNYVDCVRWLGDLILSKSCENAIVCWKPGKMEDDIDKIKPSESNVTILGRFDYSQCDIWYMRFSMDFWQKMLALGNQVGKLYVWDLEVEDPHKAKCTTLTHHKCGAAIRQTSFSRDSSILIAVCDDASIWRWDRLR
Sequence (Q15022 whole entry partner): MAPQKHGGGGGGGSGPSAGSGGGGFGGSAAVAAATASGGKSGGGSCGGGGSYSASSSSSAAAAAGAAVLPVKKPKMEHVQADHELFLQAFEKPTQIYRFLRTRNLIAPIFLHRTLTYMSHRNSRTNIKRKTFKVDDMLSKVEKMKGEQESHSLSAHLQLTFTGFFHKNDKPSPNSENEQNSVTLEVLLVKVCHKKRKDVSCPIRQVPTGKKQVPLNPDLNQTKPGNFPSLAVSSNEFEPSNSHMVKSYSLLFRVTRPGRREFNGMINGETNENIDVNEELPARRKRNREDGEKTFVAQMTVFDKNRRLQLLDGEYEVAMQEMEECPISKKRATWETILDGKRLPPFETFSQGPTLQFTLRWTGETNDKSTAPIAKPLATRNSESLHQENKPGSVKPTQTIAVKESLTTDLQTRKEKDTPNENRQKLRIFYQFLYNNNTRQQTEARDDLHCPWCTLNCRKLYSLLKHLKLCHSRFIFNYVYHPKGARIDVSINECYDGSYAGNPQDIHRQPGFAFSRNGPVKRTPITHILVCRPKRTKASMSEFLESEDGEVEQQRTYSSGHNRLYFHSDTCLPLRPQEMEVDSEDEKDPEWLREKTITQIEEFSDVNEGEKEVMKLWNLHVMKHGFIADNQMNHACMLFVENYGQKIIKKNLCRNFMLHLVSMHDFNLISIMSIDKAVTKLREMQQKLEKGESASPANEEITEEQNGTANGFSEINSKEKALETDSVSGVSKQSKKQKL
Sequence (Q09028 whole entry partner): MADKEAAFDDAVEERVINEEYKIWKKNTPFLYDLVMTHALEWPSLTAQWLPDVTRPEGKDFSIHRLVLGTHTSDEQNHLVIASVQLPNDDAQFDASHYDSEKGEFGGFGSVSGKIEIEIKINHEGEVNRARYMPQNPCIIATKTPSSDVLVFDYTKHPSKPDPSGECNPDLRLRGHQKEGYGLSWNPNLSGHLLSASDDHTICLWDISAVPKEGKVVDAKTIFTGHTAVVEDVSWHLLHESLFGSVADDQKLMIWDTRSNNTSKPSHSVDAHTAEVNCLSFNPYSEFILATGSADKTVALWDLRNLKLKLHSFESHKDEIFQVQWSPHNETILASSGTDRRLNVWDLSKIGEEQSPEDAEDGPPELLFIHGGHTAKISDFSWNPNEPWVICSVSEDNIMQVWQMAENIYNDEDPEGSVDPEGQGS
EXPERIMENT DESCRIPTION: PRC2 enzyme assay on peptide substrate, wild-type EZH2
pIC50: −log10 of the molar value.

Q: Can you share its pIC50? I mean this compound: CCC(C)n1cc(C)c2c(C(=O)NCc3c(C)n(C)[nH]c3=O)cc(-c3ccc(N4CCNCC4)nc3)cc21 (centres unmarked) [compound 28]
A: 4.30 to 5.00

Q: Can you share its pIC50? I mean this compound: CCN(c1cc(Cl)cc(C(=O)NC2CC(C)(C)NC(C)(C)C2)c1C)[C@H]1CC[C@H](N(C)C)CC1 [compound 31]
A: < 4.30

Q: Can you share its pIC50? I mean this compound: Cc1cc(=O)c(CNC(=O)c2ccc(C(C)Oc3ccccc3)cc2C)c(C)[nH]1 (centres unmarked) [compound 6]
A: < 4.30

Q: Can you share its pIC50? I mean this compound: Cc1c(CNC(=O)c2ccc(Oc3cccc(-c4ccnnc4)c3C#N)c(Cl)c2)c(=O)[nH]n1C [compound 15]
A: 4.30 to 5.00

Q: Can you share its pIC50? I mean this compound: COc1c(CNC(=O)c2ccc(C(C)Oc3ccccc3)cc2C)c(C)nn1C (centres unmarked) [compound 7]
A: < 4.30
